- TARGET SYSTEM: T1, His9-hMSR1 (human MSR1 extracellular domain) (Homo sapiens, UniProt P21757)
- T1 construct: human MSR1 extracellular domain expressed with a N-terminal nonahistidine tag; His9 (nonahistidine) (N); purchased R&D Systems 2708-MS
- T1 sequence (P21757 77-451 limits assumed): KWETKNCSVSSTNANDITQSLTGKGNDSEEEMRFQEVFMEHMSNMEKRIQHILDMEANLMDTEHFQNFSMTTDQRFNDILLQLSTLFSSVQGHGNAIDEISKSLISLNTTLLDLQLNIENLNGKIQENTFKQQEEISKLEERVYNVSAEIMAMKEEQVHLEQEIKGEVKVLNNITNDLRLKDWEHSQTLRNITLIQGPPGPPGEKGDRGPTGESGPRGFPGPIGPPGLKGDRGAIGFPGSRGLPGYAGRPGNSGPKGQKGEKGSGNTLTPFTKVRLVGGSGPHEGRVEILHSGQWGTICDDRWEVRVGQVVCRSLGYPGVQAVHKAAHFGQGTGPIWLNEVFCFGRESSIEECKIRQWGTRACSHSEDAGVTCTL
- ASSAY REMARKS: Biacore surface plasmon resonance binding kinetics of anti-MSR1 mAbs, antibody-capture format
- STUDY CONDITIONS: 25° C.; analyte His9-hMSR1; antibody-capture format; NB = no binding observed
OUTCOME MEASURE: ka (M⁻¹ s⁻¹)

MOLECULE	OUTCOME MEASURE	RESULT
H1H21227N-N297D: "The 21227N antibody was also produced as a third version with a N297D mutation" (antibody, V domains shown) VH: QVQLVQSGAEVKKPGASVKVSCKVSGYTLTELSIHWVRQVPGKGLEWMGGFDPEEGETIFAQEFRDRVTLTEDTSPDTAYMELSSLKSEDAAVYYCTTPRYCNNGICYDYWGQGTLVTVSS VL: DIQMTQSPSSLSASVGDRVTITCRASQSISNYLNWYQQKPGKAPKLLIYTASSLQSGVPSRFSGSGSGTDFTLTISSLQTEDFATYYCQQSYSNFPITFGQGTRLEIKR	ka	1.14e+06
